# System: Vero E6 infected with SARS-CoV-2
# Experiment description: morphology score (similarity to uninfected cells); higher = more like uninfected cells
# Conditions: 24 h
Given measured morphology score, output satisfied if it is greater than or equal to 0.07 and not satisfied if not.

Compound	Answer label
NC(=O)c1cnc(N[C@@H]2CCCC[C@@H]2N)nc1Nc1cccc(-n2nccn2)c1 (10 µM)	satisfied
CC/C(=C(/CC)c1ccc(O)cc1)c1ccc(O)cc1 [diethylstilbestrol] (10 µM)	not satisfied
CCc1cn([C@H]2C[C@H](O)[C@@H](CO)O2)c(=O)[nH]c1=O [edoxudine] (10 µM)	not satisfied
CC1(C)[C@@H](OC(=O)CCC(=O)O)CC[C@]2(C)[C@H]3C(=O)C=C4[C@@H]5C[C@@](C)(C(=O)O)CC[C@]5(C)CC[C@@]4(C)[C@]3(C)CC[C@@H]12 (10 µM)	satisfied
CCn1cc(C(=O)O)c(=O)c2cc(F)c(N3CCNCC3)cc21 [norfloxacin] (10 µM)	satisfied
O=C(NCCCN1CCC2(CC1)OCc1ccccc12)[C@H]1CCCN1Cc1ccccc1 (10 µM)	satisfied
CCCCN1[C@@H]2CC[C@H]1C[C@@H](OC(c1ccc(F)cc1)c1ccc(F)cc1)C2 (0.833333 µM)	not satisfied
CCCCCCCCCCCC(=O)O [lauric-acid] (10 µM)	satisfied
